I'd appreciate it if you could supply max activity values for the items below.
protocol.details: inhibitors of Toxoplasma growth in IFN-γ-primed HeLa – cell-based, ME49Luc, luciferase, 72 h, dose response (AID 1259418)
condition.info: T. gondii ME49Luc in IFN-y HeLa, stronger effect = lower value, -100% = high-dose IFN-γ control wells; at 19.5 µM unless noted
Among all 3,400 compounds or so, about 840 (25%) were called active. Roughly 11% stayed inconclusive and do not appear here. Only a sample is shown. Entries with a potency or affinity are not part of this list.

CC(C)c1ccc(S(=O)(=O)N2CCC3(CC2)NCCN=C3NCc2cccc(F)c2)cc1: -18.4% (inactive)
COc1ccc(NC(=O)CN2CCC3(CC2)N=C(c2ccc(F)cc2)C(=O)N3)c(OC)c1: -31.1% [at 0.35 µM] (inactive)
CCCNC(=O)N1CCc2nc(-c3ccc(C)cc3)sc2C1: -30.1% [at 0.16 µM] (inactive)
Cc1oc(-c2cccc(Cl)c2)nc1CN1CCN(C(=O)NC2CCCCC2)CC1: 20.5% [at 1.35 µM] (inactive)
COc1ccc(-c2nc3c(s2)CN(C(=O)Nc2ccc(C)cc2C)CC3)cc1: 24.8% (inactive)
O=C(Cc1cccc(F)c1)N1CCC2(CC1)Nc1cc(F)ccc1-n1cccc12: -7.02% [at 2.6 µM] (inactive)
Cc1ccc(-c2nc3c(s2)CN(C(=O)Nc2ccccc2C)CC3)cc1: 18.7% (inactive)
CCN1C(=O)CCc2cc(NC(=O)c3ccc(Br)o3)ccc21: 15.9% [at 10 µM] (inactive)
Cc1nc(CCNC(=O)[C@H]2CCCN2S(=O)(=O)c2cnn(C(F)F)c2C)cs1: 13.7% [at 10 µM] (inactive)
COc1ccc(-c2nc3c(s2)CN(C(=O)Nc2cc(C)cc(C)c2)CC3)cc1: 17.7% (inactive)

Please state max activity for every compound in the list that follows.
1. CC(C)n1c(C(=O)Nc2cccc(F)c2)nc2c1CCN(Cc1ccccc1)C2
2. Cc1nc(OCC(=O)Nc2cccc(C)c2C)c2ccccc2n1
3. CC1CCN(C(=O)c2ccc(-c3csc(C4CC4)n3)cc2)CC1
4. CCOc1ccccc1-c1nc(CN2CCc3c(sc4c3CCCC4)C2c2ccccc2)c(C)o1 (stereo unspecified)
5. Cc1nc(-c2ccc(F)cc2)sc1-c1ccc(SCCN2CCOCC2)nn1
6. Cc1ccc(C)c(-c2coc(-c3ccc(NC(=O)NCc4ccc(F)cc4)cc3)n2)c1

**Result**
["12.5% (inactive)", "9.02% [at 0.16 µM] (inactive)", "6.7% (inactive)", "19.5% (inactive)", "231% (inactive)", "-8.97% [at 1.35 µM] (inactive)"]

Please state max activity for every compound in the list that follows.
1. CCCN1CCc2nc(SCc3nc(-c4cccc(Cl)c4)oc3C)[nH]c(=O)c2C1
2. Cc1ccc2c(c1)cc(S(=O)(=O)c1ccccc1)c(=O)n2CC(=O)NCC1CCCO1 (stereo unspecified)
3. Cc1ccc(-c2coc(-c3ccc(NC(=O)Nc4ccc(C)c(F)c4)cc3)n2)cc1
4. Cc1ccc(NC(=O)N2CCN(Cc3nc(-c4ccccc4C)oc3C)CC2)cc1
5. O=C(Cc1ccccc1)N1CCC2(CC1)CC(N1CCCC1)CO2 (stereo unspecified)
6. Cc1ccc(NC(=O)N2CCN(Cc3nc(-c4ccc(C)cc4)oc3C)CC2)cc1
7. Cc1ccc(-c2nc3c(s2)CN(C(=O)Nc2cccc(C)c2)CC3)cc1

**Result**
["10.2% [at 0.68 µM] (inactive)", "-10.7% [at 10 µM] (inactive)", "19.5% [at 10 µM] (inactive)", "9.16% [at 2.6 µM] (inactive)", "17.6% [at 2.6 µM] (inactive)", "13.6% [at 0.16 µM] (inactive)", "26.8% [at 10 µM] (inactive)"]

Please state max activity for every compound in the list that follows.
1. COc1ccc(CN2C[C@@H]3CN(Cc4cnn(C)c4)C[C@H]3C2=O)cc1
2. CCCNC(=O)[C@H]1[C@H](CO)[C@H]2Cn3c(ccc(C4=CCCCC4)c3=O)[C@H]2N1Cc1ccccc1F
3. CCc1ccc(NC(=O)N2CCN(Cc3nc(-c4ccc(C)cc4)oc3C)CC2)cc1
4. CCc1ccccc1NC(=O)Nc1ccc(-c2nc(-c3ccccc3)co2)cc1
5. Cc1ccc(-c2nc(CN3CCN(C(=O)Nc4ccc(Cl)cc4)CC3)c(C)o2)cc1
6. Cc1ccc(CN2CCC3(CC2)N=C(c2ccc(C)cc2)C(=O)N3)cc1
7. CCOC(=O)Cc1ccc(NC(=O)Nc2ccc(-c3nc(-c4ccc(C)cc4C)co3)cc2)cc1
8. CCc1cccc(NC(=O)COc2nc(CC)nc3ccccc23)c1

**Result**
["20.7% (inactive)", "16.8% [at 10 µM] (inactive)", "-17.1% [at 0.68 µM] (inactive)", "13.1% [at 5 µM] (inactive)", "22.8% [at 0.16 µM] (inactive)", "12.6% [at 2.6 µM] (inactive)", "11.1% (inactive)", "-10.7% [at 10 µM] (inactive)"]

Please state max activity for every compound in the list that follows.
1. Cc1ccc(-c2nc(CSc3nc4c(c(=O)[nH]3)CN(Cc3ccc(Cl)cc3)CC4)c(C)o2)cc1
2. Cc1ccc(NC(=O)COc2nc(C)nc3ccccc23)c(C)c1

**Result**
1. 23.9% (inactive)
2. 13.8% [at 0.68 µM] (inactive)
